- experimental.details: Plasma concentrations used to calculate DDI indices and R values
- Assay type: in vivo, human
- settings: estimated from published Cmax and unbound fraction

>  <molecule>
CN(Cc1cnc2nc(N)nc(N)c2n1)c1ccc(C(=O)N[C@@H](CCC(=O)O)C(=O)O)cc1 [Methotrexate]

>  <Cmax unbound inhibitor [Iu] / nM>
600

$$$$
>  <molecule>
CCc1nc(N)nc(N)c1-c1ccc(Cl)cc1 [Pyrimethamine]

>  <Cmax unbound inhibitor [Iu] / nM>
100

$$$$
>  <molecule>
O=C(O)Cc1ccccc1Nc1c(Cl)cccc1Cl [Diclofenac]

>  <Cmax unbound inhibitor [Iu] / nM>
30

$$$$
>  <molecule>
CN/C(=N/CCSCc1nc[nH]c1C)NC#N [Cimetidine]

>  <Cmax unbound inhibitor [Iu] / nM>
7900

$$$$
>  <molecule>
CCCN(CCC)S(=O)(=O)c1ccc(C(=O)O)cc1 [Probenecid]

>  <Cmax unbound inhibitor [Iu] / nM>
22100

$$$$

====

- target.system: UniProt:P08183
- experimental.details: Bidirectional transport of baricitinib in MDCK-MDR1 cells
- Assay type: in vitro ADME
- settings: dog, MDCK

>  <line.notation>
CCS(=O)(=O)N1CC(CC#N)(n2cc(-c3ncnc4[nH]ccc34)cn2)C1

>  <Papp at 5 μM (×10⁻⁶ cm/s)>
6.6

$$$$

====

- experimental.details: Clinical baricitinib-probenecid DDI study in healthy subjects
- Type: in vivo, human
- settings: human, urine and plasma, oral, 4 mg

>  <line.notation>
CCS(=O)(=O)N1CC(CC#N)(n2cc(-c3ncnc4[nH]ccc34)cn2)C1

>  <CL renal / mL/min>
183

$$$$

====

- experimental.details: Clinical baricitinib-probenecid DDI study in healthy subjects
- Type: in vivo, human
- settings: human, plasma, oral, 4 mg

>  <line.notation>
CCS(=O)(=O)N1CC(CC#N)(n2cc(-c3ncnc4[nH]ccc34)cn2)C1

>  <value.unit>
h

>  <Tmax>
1

$$$$

====

- experimental.details: Clinical baricitinib-probenecid DDI study in healthy subjects
- Assay type: in vivo, human
- settings: human, plasma, oral, 1000 mg

>  <compound>
CCCN(CCC)S(=O)(=O)c1ccc(C(=O)O)cc1 [Probenecid]

>  <Cmax (µg/mL)>
145

$$$$

====

- experimental.details: Clinical baricitinib-probenecid DDI study in healthy subjects
- Assay type: in vivo, human
- settings: human, plasma, oral, 4 mg

>  <molecule>
CCS(=O)(=O)N1CC(CC#N)(n2cc(-c3ncnc4[nH]ccc34)cn2)C1 [Baricitinib]

>  <AUC [ng·h/mL]>
236

$$$$

====

- target.system: BCRP (Homo sapiens)
- Sequence (Q9UNQ0 whole entry): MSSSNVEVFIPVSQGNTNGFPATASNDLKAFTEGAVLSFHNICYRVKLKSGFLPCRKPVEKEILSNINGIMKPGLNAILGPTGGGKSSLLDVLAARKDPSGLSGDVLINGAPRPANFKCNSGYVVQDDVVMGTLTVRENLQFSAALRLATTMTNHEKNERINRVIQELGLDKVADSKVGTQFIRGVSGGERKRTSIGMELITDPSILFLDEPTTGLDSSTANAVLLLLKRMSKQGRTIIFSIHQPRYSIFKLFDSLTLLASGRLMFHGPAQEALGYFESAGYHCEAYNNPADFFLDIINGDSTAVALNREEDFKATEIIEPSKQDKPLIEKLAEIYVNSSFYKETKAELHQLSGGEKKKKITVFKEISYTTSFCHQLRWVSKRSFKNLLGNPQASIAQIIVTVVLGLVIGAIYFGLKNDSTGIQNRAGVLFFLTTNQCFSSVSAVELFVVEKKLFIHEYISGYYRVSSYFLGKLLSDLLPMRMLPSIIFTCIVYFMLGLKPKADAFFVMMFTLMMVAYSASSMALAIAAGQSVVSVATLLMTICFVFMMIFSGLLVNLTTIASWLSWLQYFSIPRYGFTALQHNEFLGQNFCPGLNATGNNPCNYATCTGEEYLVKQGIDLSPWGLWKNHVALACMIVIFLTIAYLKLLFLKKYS
- experimental.details: Bidirectional transport of baricitinib in MDCK-BCRP cells
- Assay type: in vitro ADME
- settings: dog

>  <line.notation>
CCS(=O)(=O)N1CC(CC#N)(n2cc(-c3ncnc4[nH]ccc34)cn2)C1

>  <value.unit>
×10⁻⁶ cm/s

>  <Papp B→A at 5 µM>
10.1

$$$$

====

- experimental.details: Physicochemical input parameters

>  <compound>
CCS(=O)(=O)N1CC(CC#N)(n2cc(-c3ncnc4[nH]ccc34)cn2)C1 [Baricitinib]

>  <pKa>
4

$$$$

====

- target.system: P-gp (Homo sapiens)
- Sequence (P08183 whole entry): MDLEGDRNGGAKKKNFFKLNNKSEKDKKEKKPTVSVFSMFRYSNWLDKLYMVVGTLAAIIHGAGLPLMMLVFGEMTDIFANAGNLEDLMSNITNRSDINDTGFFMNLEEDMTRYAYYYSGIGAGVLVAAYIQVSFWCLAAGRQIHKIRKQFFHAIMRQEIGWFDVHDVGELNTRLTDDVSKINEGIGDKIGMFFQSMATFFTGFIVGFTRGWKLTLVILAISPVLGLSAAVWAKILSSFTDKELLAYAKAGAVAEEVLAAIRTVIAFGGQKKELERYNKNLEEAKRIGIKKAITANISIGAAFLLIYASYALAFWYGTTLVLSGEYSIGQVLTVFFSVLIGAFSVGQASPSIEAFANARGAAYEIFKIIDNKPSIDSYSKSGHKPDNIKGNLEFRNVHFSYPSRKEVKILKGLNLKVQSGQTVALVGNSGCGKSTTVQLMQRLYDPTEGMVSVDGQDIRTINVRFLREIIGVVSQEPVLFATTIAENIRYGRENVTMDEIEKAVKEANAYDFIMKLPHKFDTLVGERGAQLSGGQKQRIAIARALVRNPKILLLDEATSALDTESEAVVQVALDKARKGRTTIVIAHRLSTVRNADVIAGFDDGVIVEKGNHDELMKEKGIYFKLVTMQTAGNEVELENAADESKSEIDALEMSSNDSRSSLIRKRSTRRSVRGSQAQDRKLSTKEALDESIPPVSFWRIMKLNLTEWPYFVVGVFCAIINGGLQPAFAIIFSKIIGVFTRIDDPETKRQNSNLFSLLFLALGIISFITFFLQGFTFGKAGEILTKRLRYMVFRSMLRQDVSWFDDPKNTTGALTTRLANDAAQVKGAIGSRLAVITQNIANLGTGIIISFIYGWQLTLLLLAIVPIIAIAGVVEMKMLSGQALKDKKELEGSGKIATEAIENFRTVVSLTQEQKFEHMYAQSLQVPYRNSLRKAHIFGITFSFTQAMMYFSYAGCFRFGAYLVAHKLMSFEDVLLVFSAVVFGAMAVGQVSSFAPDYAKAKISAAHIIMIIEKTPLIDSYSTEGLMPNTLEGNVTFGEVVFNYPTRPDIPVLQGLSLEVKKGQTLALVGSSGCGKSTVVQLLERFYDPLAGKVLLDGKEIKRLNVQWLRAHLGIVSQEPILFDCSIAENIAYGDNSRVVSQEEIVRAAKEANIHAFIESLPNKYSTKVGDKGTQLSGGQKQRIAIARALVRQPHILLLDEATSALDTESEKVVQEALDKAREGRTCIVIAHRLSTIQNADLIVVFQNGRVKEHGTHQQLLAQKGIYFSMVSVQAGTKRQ
- experimental.details: Bidirectional transport of baricitinib in MDCK-MDR1 cells
- Assay type: in vitro ADME
- settings: dog, MDCK-MDR1

>  <line.notation>
CCS(=O)(=O)N1CC(CC#N)(n2cc(-c3ncnc4[nH]ccc34)cn2)C1

>  <value.unit>
×10⁻⁶ cm/s

>  <Papp B→A at 5 µM>
35.2

$$$$

====

- experimental.details: Pharmacokinetic input parameters of the PBPK models
- Assay type: in vivo, human
- settings: human, plasma, po, 2000 mg/day

>  <molecule>
CCCN(CCC)S(=O)(=O)c1ccc(C(=O)O)cc1 [Probenecid]

>  <value.unit>
mL/min

>  <CL/F>
12.2

$$$$

====

- experimental.details: Clinical baricitinib-probenecid DDI study in healthy subjects
- Assay type: in vivo, human
- settings: human, plasma, oral, 4 mg
result.type: half-life

>  <line.notation>
CCS(=O)(=O)N1CC(CC#N)(n2cc(-c3ncnc4[nH]ccc34)cn2)C1

>  <reported.result>
7.28 h

$$$$

====

- target.system: MATE2-K (Homo sapiens, UniProt Q86VL8)
- Sequence (Q86VL8 1-566 isoform Q86VL8-3): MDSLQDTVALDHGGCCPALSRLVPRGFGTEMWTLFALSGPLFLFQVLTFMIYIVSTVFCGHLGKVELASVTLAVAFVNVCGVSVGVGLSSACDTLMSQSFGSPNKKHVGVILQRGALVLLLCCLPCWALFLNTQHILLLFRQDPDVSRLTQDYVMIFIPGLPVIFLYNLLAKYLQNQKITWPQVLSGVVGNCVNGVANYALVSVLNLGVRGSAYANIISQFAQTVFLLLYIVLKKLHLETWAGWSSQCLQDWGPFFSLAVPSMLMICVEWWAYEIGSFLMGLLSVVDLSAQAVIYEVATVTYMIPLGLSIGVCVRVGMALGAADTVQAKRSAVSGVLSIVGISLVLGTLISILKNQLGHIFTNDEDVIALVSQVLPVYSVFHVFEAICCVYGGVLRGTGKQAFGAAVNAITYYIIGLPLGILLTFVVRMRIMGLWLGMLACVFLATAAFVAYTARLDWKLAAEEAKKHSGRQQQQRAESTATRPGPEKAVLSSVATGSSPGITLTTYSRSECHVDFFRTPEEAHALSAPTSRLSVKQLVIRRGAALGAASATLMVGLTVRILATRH
- experimental.details: Inhibition of the MATE2-K-mediated uptake of baricitinib
- settings: IC50 MATE2-K (mean), substrate 0.25 μM baricitinib, 0.5 min
The entries below are paired with their reported IC50.

>  <line.notation>
CN/C(=N/CCSCc1nc[nH]c1C)NC#N

>  <value.unit>
µM

>  <IC50>
5.1

$$$$
>  <line.notation>
CCc1nc(N)nc(N)c1-c1ccc(Cl)cc1

>  <value.unit>
µM

>  <IC50>
0.25

$$$$
